target: human recombinant BACE2 (Homo sapiens (Human), UniProt Q9Y5Z0); assay: In vitro enzymatic BACE2 FRET assay; format: biochemical; conditions: read-out: IC50 IP (μM) BACE2 enzyme
Sequence (Q9Y5Z0 63-518): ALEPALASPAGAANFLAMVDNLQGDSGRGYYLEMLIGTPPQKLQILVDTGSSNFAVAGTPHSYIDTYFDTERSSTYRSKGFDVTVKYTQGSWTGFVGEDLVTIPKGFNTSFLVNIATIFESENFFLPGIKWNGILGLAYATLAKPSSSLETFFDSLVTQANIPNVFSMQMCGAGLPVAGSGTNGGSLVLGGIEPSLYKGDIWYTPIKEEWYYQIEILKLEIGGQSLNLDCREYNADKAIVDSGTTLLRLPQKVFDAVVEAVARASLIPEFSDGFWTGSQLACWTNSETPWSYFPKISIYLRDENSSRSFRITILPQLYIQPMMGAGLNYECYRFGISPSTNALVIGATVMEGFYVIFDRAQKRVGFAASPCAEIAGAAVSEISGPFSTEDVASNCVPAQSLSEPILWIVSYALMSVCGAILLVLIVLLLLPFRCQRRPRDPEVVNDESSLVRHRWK
Form field: IC50 (one value per entry).
Experimental readout: IC50 (µM)

Compound: NC1=N[C@](CF)(c2cc(NC(=O)c3ccc(Cl)cn3)ccc2F)[C@@H]2C[C@]2(c2cnco2)S1
U: µM
Bound sign: <
Numeric value: 0.00203
//
Compound: C#CCOc1cnc(C(=O)Nc2cc(F)c(F)c([C@@]3(C)N=C(N)S[C@@]4(C(=O)N5CCCC5)C[C@H]43)c2)cn1
U: µM
Bound sign: <
Numeric value: 0.00203
//
Compound: COC[C@]12C[C@H]1[C@@](C)(c1cc(NC(=O)c3cnc(OCC4CC4(F)F)cn3)cc(F)c1F)N=C(N)S2 (stereo partly drawn)
U: µM
Bound sign: =
Numeric value: 0.1
//
Compound: CC#CCOc1cnc2c(Nc3cc(F)c(F)c([C@@]4(C)N=C(N)S[C@@]5(C(N)=O)C[C@H]54)c3)nccc2n1
U: µM
Bound sign: =
Numeric value: 0.00604
//
Compound: C#CCOc1cnc2c(Nc3cnc(F)c([C@@]4(C)N=C(N)S[C@@]5([C@H](O)C(F)(F)F)C[C@H]54)c3)nccc2n1
U: µM
Bound sign: =
Numeric value: 0.00425
//
Compound: CN(C)C(=O)/C=C/[C@]12C[C@H]1[C@@](CF)(c1cc(Nc3nccc4nc(OCc5ncco5)cnc34)ccc1F)N=C(N)S2
U: µM
Bound sign: =
Numeric value: 0.023

----------
Molecular target: Recombinant Cat D (Homo sapiens (Human))
Sequence (P07339 65-412): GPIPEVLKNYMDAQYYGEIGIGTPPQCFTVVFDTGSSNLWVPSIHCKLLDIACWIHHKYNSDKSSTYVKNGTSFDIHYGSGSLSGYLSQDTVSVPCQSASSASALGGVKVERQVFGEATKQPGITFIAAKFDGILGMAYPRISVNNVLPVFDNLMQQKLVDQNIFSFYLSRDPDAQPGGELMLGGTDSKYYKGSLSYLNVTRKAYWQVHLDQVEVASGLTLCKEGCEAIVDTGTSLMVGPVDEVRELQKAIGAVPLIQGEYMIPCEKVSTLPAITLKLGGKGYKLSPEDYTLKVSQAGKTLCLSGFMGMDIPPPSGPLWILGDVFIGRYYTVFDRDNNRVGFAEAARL
Assay: In vitro enzymatic Cathepsin D (Cat D) FRET assay
Format: biochemical
Details: read-out: IC50 IP (μM) CatD
Method: In Vitro Enzymatic Cathepsin D (Cat D) FRET (Fluorescence Resonance Energy Transfer) Assay Recombinant Cat D was expressed in CHO cells. The assay buffer for CathepsinD is 0.05 M citrate pH 3.5, 10% DMSO final, 5 mM CHAPS. […] The FRET assay is terminated with by addition of Tris buffer, which raises the pH to neutrality, and the fluorescence is determined. […] Proteolytic cleavage of the FRET substrate releases quenching of fluorescence (Cat D excitation 500 nm and emission 580 nm).

Compound: C[C@]1(c2cc(NC(=O)c3ccc(Cl)cn3)ccc2F)N=C(N)S[C@@]2(C(=O)NC3CC3)C[C@H]21
Assay target: Recombinant Cat D (Homo sapiens (Human))
Bound sign: =
IC50, µM: 134
//
Compound: COC[C@]12C[C@H]1[C@@](C)(c1cc(NC(=O)c3ncc(O[C@@H](C)c4ncco4)nc3C)cc(F)c1F)N=C(N)S2
Assay target: Recombinant Cat D (Homo sapiens (Human))
Bound sign: =
IC50, µM: 621
//
Compound: COC[C@]12C[C@H]1[C@@](C)(c1cc(NC(=O)c3ccc(Cl)cn3)ccc1F)N=C(N)S2
Assay target: Recombinant Cat D (Homo sapiens (Human))
Bound sign: >
IC50, µM: 400
//
Compound: C[C@]1(c2cc(Nc3nccc4cc(OCc5ncco5)cnc34)cnc2F)N=C(N)S[C@]2(CO)[C@H]1C2(F)F
Assay target: Recombinant Cat D (Homo sapiens (Human))
Bound sign: =
IC50, µM: 1140
//
Compound: COC[C@]12C[C@H]1[C@@](C)(c1cc(NC(=O)c3cnc(Cl)cn3)cc(F)c1F)N=C(N)S2
Assay target: Recombinant Cat D (Homo sapiens (Human))
Bound sign: =
IC50, µM: 460
//
Compound: [2H]C([2H])([2H])OC[C@]12C[C@H]1[C@@](C)(c1cc(NC(=O)c3ncc(OCC#C)nc3C)cnc1F)N=C(N)S2
Assay target: Recombinant Cat D (Homo sapiens (Human))
Bound sign: =
IC50, µM: 1150
//
Compound: C#CCOc1cnc2c(Nc3cnc(F)c([C@@]4(C)N=C(N)S[C@H]5C[C@H]54)c3)nccc2n1
Assay target: Recombinant Cat D (Homo sapiens (Human))
Bound sign: =
IC50, µM: 381
//
Compound: COC[C@]12C[C@H]1[C@@](C)(c1cc(Nc3nccc4nc(OCc5ncco5)cnc34)cnc1F)N=C(N)S2
Assay target: Recombinant Cat D (Homo sapiens (Human))
Bound sign: =
IC50, µM: 1530
//
Compound: C#CCOc1cnc2c(Nc3ccc(F)c([C@@]4(CF)N=C(N)S[C@@]5(/C=C/C(=O)N(C)C)C[C@H]54)c3)ncnc2c1
Assay target: Recombinant Cat D (Homo sapiens (Human))
Bound sign: =
IC50, µM: 293
//
Compound: C#CCOc1cnc2c(Nc3ccc(F)c([C@@]4(C)N=C(N)S[C@@]5([C@H](O)C(F)(F)F)C[C@H]54)c3)nccc2n1
Assay target: Recombinant Cat D (Homo sapiens (Human))
Bound sign: =
IC50, µM: 1040
//
Compound: COc1cnc2c(Nc3cc(F)c(F)c([C@@]4(C)N=C(N)S[C@H]5C[C@H]54)c3)ncnc2c1
Assay target: Recombinant Cat D (Homo sapiens (Human))
Bound sign: =
IC50, µM: 1440
//
Compound: C#CCOc1cnc(C(=O)Nc2ccc(F)c([C@@]3(C)N=C(N)S[C@@]4(C(=O)NC(C)(C)C)C[C@H]43)c2)cn1
Assay target: Recombinant Cat D (Homo sapiens (Human))
Bound sign: =
IC50, µM: 4.72
//
Compound: COC[C@]12C[C@H]1[C@@](C)(c1cc(NC(=O)c3cnc(O[C@H](C)C(F)(F)F)cn3)ccc1F)N=C(N)S2 (single isomer, unassigned)
Assay target: Recombinant Cat D (Homo sapiens (Human))
Bound sign: =
IC50, µM: 1640
//
Compound: COC[C@]12C[C@H]1[C@@](C)(c1cc(Nc3nccc4cc(OCc5cnco5)cnc34)cc(F)c1F)N=C(N)S2
Assay target: Recombinant Cat D (Homo sapiens (Human))
Bound sign: >
IC50, µM: 400

----------
Form field: IC50 (one value per entry).
target: human recombinant BACE2 (Homo sapiens (Human)); test: In vitro enzymatic BACE2 FRET assay; assay type: biochemical; details: read-out: IC50 IP (μM) BACE2 enzyme

Molecule: C[C@]1(c2cc(NC(=O)c3cnc(OCC(F)(F)F)cn3)ccc2F)N=C(N)S[C@@]2(C(=O)NC3CC3)C[C@H]21 [Example 800]
U: µM
IC50: 0.0841

Molecule: C[C@]1(c2cc(NC(=O)c3ccc(OCC(F)(F)F)cn3)ccc2F)N=C(N)S[C@@]2(C(F)F)C[C@@H]12 [Example 696]
U: µM
IC50: 0.324

Molecule: C#C[C@H](C)Oc1cnc(C(=O)Nc2cc(F)c(F)c([C@@]3(C)N=C(N)S[C@@]4(C(=O)NC)C[C@H]43)c2)cn1 [Example 967]
U: µM
IC50: 0.0149

----------
molecular target: human recombinant BACE1 (Homo sapiens (Human)); assay: In vitro enzymatic BACE1 FRET assay; type: biochemical; conditions: read-out: IC50 IP (μM) BACE1 enzyme
Sequence (P56817 46-501): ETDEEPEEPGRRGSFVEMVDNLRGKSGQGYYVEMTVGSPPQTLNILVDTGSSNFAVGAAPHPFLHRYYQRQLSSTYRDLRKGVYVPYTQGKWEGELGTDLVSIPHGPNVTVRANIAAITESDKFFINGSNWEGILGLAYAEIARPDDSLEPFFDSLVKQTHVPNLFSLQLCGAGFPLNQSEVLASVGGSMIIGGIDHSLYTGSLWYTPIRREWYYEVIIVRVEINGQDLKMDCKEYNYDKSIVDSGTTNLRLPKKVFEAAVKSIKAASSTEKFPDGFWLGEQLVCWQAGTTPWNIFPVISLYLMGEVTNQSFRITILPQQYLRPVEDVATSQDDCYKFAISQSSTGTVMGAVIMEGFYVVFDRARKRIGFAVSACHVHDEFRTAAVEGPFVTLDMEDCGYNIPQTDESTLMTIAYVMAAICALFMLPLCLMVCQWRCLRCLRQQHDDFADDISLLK
// boundary case: IC50 equal to 0.007 µM maps to condition not met; strictly smaller maps to condition met

Smiles data: COCCOc1cnc2c(Nc3ccc(F)c([C@@]4(CF)N=C(N)S[C@@]5(CF)C[C@H]54)c3)nccc2n1
Class: condition not met
--
Smiles data: C[C@]1(c2cc(Nc3ncnc4cc(OCc5ncco5)cnc34)cnc2F)N=C(N)S[C@@]2(CF)C[C@H]21
Class: condition met
--
Smiles data: COC[C@]12C[C@H]1[C@@](C)(c1cc(NC(=O)c3ncc(OCC(F)(F)F)cc3C)cc(F)c1F)N=C(N)S2
Class: condition not met
--
Smiles data: CC(C)Oc1cnc2c(Nc3cc(F)c(F)c([C@@]4(C)N=C(N)S[C@@]5(C(F)F)C[C@@H]45)c3)nccc2n1
Class: condition not met
--
Smiles data: C#CCOc1cnc(C(=O)Nc2cc(F)c(F)c([C@@]3(C)N=C(N)S[C@@]4(CF)C[C@H]43)c2)c(C)c1
Class: condition met
--
Smiles data: C#C[C@H](C)Oc1cnc2c(Nc3cc(F)c(F)c([C@@]4(C)N=C(N)S[C@@]5(C(=O)N(C)C)C[C@H]54)c3)nccc2n1
Class: condition met
--
Smiles data: C#CCOc1cnc2c(Nc3cnc(OC)c([C@@]4(C)N=C(N)S[C@@]5(CF)C[C@H]54)c3)ncnc2c1
Class: condition not met
--
Smiles data: [2H]C([2H])([2H])OC[C@]12C[C@H]1[C@@](C)(c1cc(Nc3nccc4nc(OCC#C)cnc34)cnc1F)N=C(N)S2
Class: condition met
--
Smiles data: C[C@H](O)[C@]12C[C@H]1[C@@](C)(c1cc(Nc3ncnc4cc(C#N)cnc34)cc(F)c1F)N=C(N)S2
Class: condition not met
--
Smiles data: CC(C)(C)NC(=O)[C@]12C[C@H]1[C@@](C)(c1cc(NC(=O)c3ccc(C#N)cn3)ccc1F)N=C(N)S2
Class: condition met
--
Smiles data: NC1=N[C@](CF)(c2cc(NC(=O)c3ccc(Cl)cn3)ccc2F)[C@@H]2C[C@]2(Cn2ccnn2)S1
Class: condition not met
--
Smiles data: C[C@]1(c2cc(Nc3nccc4nc(OCc5ncco5)cnc34)cc(F)c2F)N=C(N)S[C@@]2(S(C)(=O)=O)C[C@H]21
Class: condition met
--
Smiles data: Cc1cc(NC(=O)c2cnc(OCC(F)(F)F)cn2)cc([C@@]2(C)N=C(N)S[C@@]3(C(F)F)C[C@@H]23)c1F
Class: condition met
--
Smiles data: COC[C@]12C[C@H]1[C@@](C)(c1cc(NC(=O)c3ccc(OCC(F)(F)F)cn3)ccc1F)N=C(N)S2
Class: condition not met
